Answer each item with its documented CC50 at 144 h.
- Assay Name: Cytotoxicity in PHH natural infection assay (Cell Counting Kit-8)
- Type: cell-based
- Condition: HBV-infected primary human hepatocytes, CCK8
- Experimental: Detailed procedures regarding primary human hepatocyte (PHH) HBV natural infection assay are described as below. […] HBsAg and HBeAg were detected using alphalisa method using their specific antibodies. For HBV DNA detection, HBV DNA Quantitative Fluorescence Diagnostic Kit (Sansure Biotech Inc.) was used following the manufacture's protocol. Cytotoxicity was determined using Cell Counting Kit-8 (CCK8, Dojindo Molecular Technologies, Inc.).

May I ask what CC50 at 144 h has been recorded for NS(=O)(=O)c1ccc(C(=O)NCC2CCN(c3nc4cc(Cl)ccc4o3)CC2)o1 [Example 8] ?
> 10 µM

May I ask what CC50 at 144 h has been recorded for O=C(NC1CC2(C1)CN(c1nc3cc(Cl)ccc3o1)C2)c1ccc(S(=O)(=O)CC2CC2)o1 [Example 65] ?
92.3 µM

May I ask what CC50 at 144 h has been recorded for O=C(NC1CC2(C1)CN(c1nc3ccc(Cl)cc3o1)C2)c1ccnc(S(=O)(=O)C2CC2)c1 [Example 37] ?
> 10 µM

May I ask what CC50 at 144 h has been recorded for O=C(NC1C2CN(c3nc4cc(Cl)ccc4o3)CC21)c1ccc(C(F)(F)F)o1 (centres unmarked) [Example 125] ?
> 100 µM

May I ask what CC50 at 144 h has been recorded for CC(C)(C)C(=O)NC1CCC2(CC1)CCN(c1nc3cc(Cl)ccc3o1)CC2 [Example 78] ?
57.9 µM

May I ask what CC50 at 144 h has been recorded for CS(=O)(=O)c1cccc(C(=O)NCC2CCN(c3nc4cc(Cl)ccc4o3)CC2)c1 [Example 4] ?
> 10 µM

May I ask what CC50 at 144 h has been recorded for O=C(NC1CC2(C1)CN(c1nc3cc(Cl)ccc3o1)C2)c1ccc(S(=O)(=O)C2CC2)o1 [Example 44] ?
> 100 µM

May I ask what CC50 at 144 h has been recorded for O=C(NC1CCC2(CCN(c3nc4cc(Cl)ccc4o3)C2)C1)C1CCS(=O)(=O)C1 (centres unmarked) [Example 74] ?
> 100 µM

###

Answer each item with its documented CC50 at 144 h.
- Assay Name: Cytotoxicity in PHH natural infection assay (Cell Counting Kit-8)
- Type: cell-based
- Condition: HBV-infected primary human hepatocytes, CCK8

May I ask what CC50 at 144 h has been recorded for Cc1cc(C(=O)NC2CC3(C2)CN(c2nc4cc(Cl)ccc4o2)C3)ccn1 [Example 45] ?
80.1 µM

May I ask what CC50 at 144 h has been recorded for O=C(NC1CC2(C1)CN(c1nc3cc(Cl)ccc3o1)C2)C1CCC(F)(F)C1 (centres unmarked) [Example 32] ?
> 100 µM

May I ask what CC50 at 144 h has been recorded for NC(=O)c1cc(C(=O)NCC2CCN(c3nc4cc(Cl)ccc4o3)CC2)ccn1 [Example 6] ?
> 10 µM

May I ask what CC50 at 144 h has been recorded for O=C(NC1CCC2(CC1)CCN(c1nc3cc(Cl)ccc3o1)CC2)C1CCC(F)(F)C1 (centres unmarked) [Example 101] ?
> 100 µM

May I ask what CC50 at 144 h has been recorded for Cc1ccc(S(=O)(=O)N2CCC(CC(=O)NCC3CCN(c4nc5cc(Cl)ccc5o4)CC3)CC2)cc1 [Example 20] ?
> 10 µM

May I ask what CC50 at 144 h has been recorded for O=C(NC1CC2(CCN(c3nc4cc(Cl)ccc4o3)CC2)C1)C1CCS(=O)(=O)C1 (centres unmarked) [Example 76] ?
> 100 µM

May I ask what CC50 at 144 h has been recorded for CC(C)CS(=N)(=O)c1ccc(C(=O)NC2CC3(C2)CN(c2nc4cc(Cl)ccc4o2)C3)o1 (centres unmarked) [Example 50] ?
95.4 µM

May I ask what CC50 at 144 h has been recorded for O=C(NC1CC2(CCN(c3nc4ccc(Cl)cc4o3)C2)C1)C1CCS(=O)(=O)C1 (centres unmarked) [Example 73] ?
> 100 µM

###

- Assay Name: Cytotoxicity in PHH natural infection assay (Cell Counting Kit-8)
- Type: cell-based
- Condition: HBV-infected primary human hepatocytes, CCK8
Answer each item with its documented CC50 at 144 h.

May I ask what CC50 at 144 h has been recorded for NS(=O)(=O)CCC(=O)NC1CCC2(CC1)CCN(c1nc3cc(Cl)ccc3o1)CC2 ?
76.3 µM

May I ask what CC50 at 144 h has been recorded for O=C(NC1CC2(CCN(c3nc4cc(Cl)ccc4o3)CC2)C1)c1ccc(C(F)(F)F)o1 ?
> 100 µM

May I ask what CC50 at 144 h has been recorded for COc1cc(C(=O)NC2CCC3(CC2)CCN(c2nc4cc(Cl)ccc4o2)CC3)ccn1 ?
> 100 µM

May I ask what CC50 at 144 h has been recorded for O=C(NC1CCC2(CC1)CCN(c1nc3cc(Cl)ccc3o1)CC2)C1CCS(=O)(=O)C1 (stereo not shown) ?
73.9 µM

May I ask what CC50 at 144 h has been recorded for O=C(NC1CCC2(CC1)CCN(c1nc3cc(Cl)ccc3o1)CC2)c1ccnc(C(F)(F)F)c1 ?
59 µM

May I ask what CC50 at 144 h has been recorded for C[S@](=N)(=O)c1ccc(C(=O)NC2CC3(C2)CN(c2nc4cc(Cl)ccc4o2)C3)o1 ?
> 100 µM

May I ask what CC50 at 144 h has been recorded for CC(C)CC(=O)NC1CCC2(CC1)CCN(c1nc3cc(Cl)ccc3o1)CC2 ?
> 100 µM

May I ask what CC50 at 144 h has been recorded for O=C(NC1CCC2(CC1)CCN(c1nc3cc(Cl)ccc3o1)CC2)c1ccc(S(=O)(=O)C2CC2)o1 ?
> 100 µM

May I ask what CC50 at 144 h has been recorded for O=C(NC1CC2(C1)CN(c1nc3cc(Cl)ccc3o1)C2)c1ccc(S(=O)(=O)NC2CC2)o1 ?
> 10 µM

May I ask what CC50 at 144 h has been recorded for CCS(=O)(=O)c1ccc(C(=O)NC2CC3(C2)CN(c2nc4cc(Cl)ccc4o2)C3)o1 ?
> 100 µM

May I ask what CC50 at 144 h has been recorded for C[S+]([O-])c1ccc(C(=O)NC2CCC3(CC2)CCN(c2nc4cc(Cl)ccc4o2)CC3)o1 (stereo not shown) ?
68.5 µM

May I ask what CC50 at 144 h has been recorded for O=C(NC1CC2(C1)CN(c1nc3cc(Cl)ccc3o1)C2)C1CS(=O)(=O)C1 ?
> 100 µM

May I ask what CC50 at 144 h has been recorded for O=C(NC1CCC2(CC1)CCN(c1nc3ccc(Cl)cc3o1)CC2)C1CCS(=O)(=O)C1 (stereo not shown) ?
90.6 µM

May I ask what CC50 at 144 h has been recorded for CCS(=O)(=O)c1cc(C(=O)NC2CC3(C2)CN(c2nc4cc(Cl)ccc4o2)C3)ccn1 ?
93.2 µM

May I ask what CC50 at 144 h has been recorded for O=C(NC1CCC2(CC1)CCN(c1nc3cc(Cl)ccc3o1)CC2)c1ccc(C(F)(F)F)o1 ?
> 100 µM

May I ask what CC50 at 144 h has been recorded for CS(=O)(=O)c1ccc(C(=O)NC2CCC3(CC2)CCN(c2nc4cc(Cl)ccc4o2)CC3)o1 ?
> 100 µM

###

- Assay Name: Cytotoxicity in PHH natural infection assay (Cell Counting Kit-8)
- Format: cell-based
- Condition: HBV-infected primary human hepatocytes, CCK8
Property Name: CC50 at 144 h

May I ask what CC50 at 144 h has been recorded for CC1(C(=O)NC2CCC3(CC2)CCN(c2nc4cc(Cl)ccc4o2)CC3)CCSCC1 [Example 87] ?
> 100 µM

May I ask what CC50 at 144 h has been recorded for O=C(NC1CCC2(CC1)CCN(c1nc3cc(Cl)ccc3o1)CC2)c1ccc(S(=O)(=O)CC2CC2)o1 [Example 121] ?
> 100 µM

May I ask what CC50 at 144 h has been recorded for O=C(NC1CCC2(CC1)CCN(c1nc3cc(Cl)ccc3o1)CC2)[C@@H]1CCS(=O)(=O)C1 [Example 91] ?
89.2 µM

May I ask what CC50 at 144 h has been recorded for O=C(NC1CCC2(CC1)CCN(c1nc3cc(Cl)ccc3o1)CC2)C1CCCS(=O)(=O)C1 (centres unmarked) [Example 100] ?
> 100 µM

May I ask what CC50 at 144 h has been recorded for O=C(CC1CS(=O)(=O)C1)NC1CC2(C1)CN(c1nc3cc(Cl)ccc3o1)C2 (centres unmarked) [Example 35] ?
> 100 µM

May I ask what CC50 at 144 h has been recorded for CC1(C(=O)NC2CCC3(CC2)CCN(c2nc4cc(Cl)ccc4o2)CC3)CCS(=O)(=O)CC1 [Example 99] ?
94.1 µM

May I ask what CC50 at 144 h has been recorded for C[S@@](=N)(=O)c1ccc(C(=O)NC2CC3(C2)CN(c2nc4cc(Cl)ccc4o2)C3)o1 [Example 63] ?
> 100 µM

May I ask what CC50 at 144 h has been recorded for Cc1ccc(S(=O)(=O)N2CCC(C(=O)NCC3CCN(c4nc5cc(Cl)ccc5o4)CC3)C2)cc1 (centres unmarked) [Example 14] ?
> 10 µM
